Experiment: Plasma pharmacokinetics by LC-MS/MS in OVCAR3 xenograft tumor-bearing nude mice
Format: in vivo, BALB/c nude mice
Details: female, BALB/c nude, mouse; monotherapy group; plasma; oral gavage once daily for four weeks; Dorz 10 mg/kg, WX390 0.2 mg/kg, BYL719 25 mg/kg; n = 3; read-out: Tmax
MEASUREMENT_TYPE: Tmax (h)
Answers are plain numbers, in h.

What does the record list as Tmax for `Cc1nc(NC(=O)N2CCC[C@H]2C(N)=O)sc1-c1ccnc(C(C)(C)C(F)(F)F)c1` ?
1

---

Assay: Plasma pharmacokinetics by LC-MS/MS in OVCAR3 xenograft tumor-bearing nude mice
Assay type: in vivo, BALB/c nude mice
Settings: female, BALB/c nude, mouse, plasma, po, 25 mg/kg, monotherapy group; plasma; oral gavage once daily for four weeks; Dorz 10 mg/kg, WX390 0.2 mg/kg, BYL719 25 mg/kg; n = 3
MEASUREMENT_TYPE: AUC(0-t) (ng·h/mL)
Numbers only, in ng·h/mL.

What does the record list as AUC(0-t) for `Cc1nc(NC(=O)N2CCC[C@H]2C(N)=O)sc1-c1ccnc(C(C)(C)C(F)(F)F)c1` ?
29000

---

Assay: Plasma pharmacokinetics by LC-MS/MS in OVCAR3 xenograft tumor-bearing nude mice
Format: in vivo, BALB/c nude mice
Conditions: female, BALB/c nude, mouse, plasma, po, 25 mg/kg, PI3Ki measured in combination group with Dorz 10 mg/kg (given 30 min before); WX390 0.2 mg/kg or BYL719 25 mg/kg oral; n = 3; read-out: Cmax
MEASUREMENT_TYPE: Cmax (ng/mL)
Numbers only, in ng/mL.

What does the record list as Cmax for `Cc1nc(NC(=O)N2CCC[C@H]2C(N)=O)sc1-c1ccnc(C(C)(C)C(F)(F)F)c1` ?
4210
